Where these numbers come from: the NIST ThermoML archive (doi:10.1016/j.tca.2012.01.013)

Experiment: refractive index (Na D-line) (dimensionless)
Details: 288.15 K; 101.33 kPa; Liquid; Standard Abbe refractometry
readoutName: refractive index
# respond with the number and nothing more

Answered cases to consult:
[[record]]
compound = "CCCCO"
readoutname = "refractive index"
resultnumber = 1.40135

[[record]]
compound = "COC(=O)CCCCC(=O)OC [dimethyl 1,6-hexanedioate]"
readoutname = "refractive index"
resultnumber = 1.4305

[[record]]
compound = "CCC(C)O (stereo not given)"
readoutname = "refractive index"
resultnumber = 1.39951

[[record]]
compound = "CCC(C)=O"
readoutname = "refractive index"
resultnumber = 1.38153


Attention now turns to another entry.
Reported refractive index ( COC(=O)c1ccccc1C(=O)OC [dimethyl 1,2-benzenedicarboxylate] ) = 1.51779
